assay: antimalarial activity against Dd2 strain (AID 2302);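 note: 0% = DMSO untreated growth and 100% = chloroquine plus artemisinin killed control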
recorded_conditions: P. falciparum Dd2 in RBCs, LDH growth readout, 72 h; at 2 µM
The source made the active and inactive calls.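 Rule for the calls: active = growth inhibition above 50% at the single 2 µM test dose, taken to imply half-maximal potency below 2 µM; inactive = the rest.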
Respond only with the outcome that fits, drawn from active, inactive

Reference set (3 entries):
INSERT INTO assay_data (smiles_str, class_label) VALUES
  ('COc1ccc(O)c(C(=O)c2cnc3c(c2)c(-c2ccc(F)cc2)c(C#N)c(=O)n3C)c1', 'inactive'),
  ('COc1ccc(NC(=O)/C=C/c2ccc(Cl)c(C(F)(F)F)c2)cc1OCCN(C(C)C)C(C)C', 'inactive'),
  ('CC(C)(C)c1ccc2nc(-c3ccc(/C=C/C(=O)NC4CCN(Cc5ccccc5)CC4)cc3)[nH]c2c1', 'active');

GET /call?item= `COc1cccc(CCNc2nc(NCc3ccccc3)c3cc(OC)c(OC)cc3n2)c1` returns the recorded outcome of this test.
active

GET /call?item= `O=c1n(CC2CCCCC2)c2cc(Cl)cc(OCCNc3ccncc3)c2n1CC1CCCCC1` returns the recorded outcome of this test.
active

GET /call?item= `Cc1cc(-c2ccc3occ(CCN)c3c2)cnc1N` returns the recorded outcome of this test.
active

GET /call?item= `O=C(/C=C/c1ccc(Cl)c(Cl)c1)NCCCCCN1CCCN(C(=O)Nc2cccc(Cl)c2)CC1` returns the recorded outcome of this test.
inactive

GET /call?item= `Cc1noc(C)c1-c1ccc2c(Nc3ccccc3C(C)(C)C)c(C(=O)NCc3ccc4c(c3)OCO4)cnc2c1` returns the recorded outcome of this test.
active

GET /call?item= `CC1(C)N=C(N)N=C(N)N1OCCCc1ccc(Cl)cc1Cl` returns the recorded outcome of this test.
active

---

assay: antimalarial activity against Dd2 strain (AID 2302);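 note: 0% = DMSO untreated growth and 100% = chloroquine plus artemisinin killed control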
recorded_conditions: P. falciparum Dd2 in RBCs, LDH growth readout, 72 h; at 2 µM
Calls of active or inactive are those of the source.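 Rule for the calls: active = growth inhibition above 50% at the single 2 µM test dose, taken to imply half-maximal potency below 2 µM; inactive = the rest.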
Respond only with the outcome that fits, drawn from YES for active, NO for inactive

GET /call?item= `O=C(NCc1ccc(F)cc1)Nc1ccc(-c2cccc(-c3nc4ccc(C(F)(F)F)cc4[nH]3)c2)cc1` returns the recorded outcome of this test.
YES

GET /call?item= C#CCOc1ccccc1CN1CCC(N2CCc3cc(NC(=O)c4cc(C)on4)ccc32)C1 (stereo not given) returns the recorded outcome of this test.
YES

GET /call?item= COc1ccccc1C1CC(c2ccc(C)cc2)=NN1C(=O)c1ccccc1 (stereo not given) returns the recorded outcome of this test.
NO

GET /call?item= `Cc1[nH]nc2ccc(-c3cc(OC[C@@H](N)Cc4ccccc4)cnc3-c3ccc(OCc4cccc(F)c4)cc3)cc12` returns the recorded outcome of this test.
YES

GET /call?item= `Cc1ccc(Oc2cnn(C)c(=O)c2Nc2cccc(C(=O)NCCc3ccccn3)c2)c(C)c1` returns the recorded outcome of this test.
YES

---

assay: HepG2 cytotoxicity, primary screen, cytotoxicity control for P. falciparum antimalarial project, cell-based, ATP luminescence (AID 2303);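 note: 0% = DMSO wells and 100% = digitonin-killed cells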
recorded_conditions: HepG2 viability, 24-48 h, at 10 µM, active compounds read high
quantity_name: inhibition (%)
Answer in %, number only, no unit symbol.

Known results for compounds:
INSERT INTO measurements (compound, quantity_name, experimental_value) VALUES
  ('Cc1cc(N2Cc3ccccc3C2)nc(Nc2cccc(C#N)c2)n1', 'inhibition', 6),
  ('CCCCCCCCNCC(O)c1cc(-c2ccc(Cl)cc2)nc2cc(C)ccc12 (stereo not given)', 'inhibition', 0),
  ('COc1cc(N)c(Cl)cc1C(=O)NCC1CCN(c2nc(C)cc(C)n2)CC1', 'inhibition', -6),
  ('COc1cccc(C(O)CNc2ccnc(Nc3cccc(-c4csc(C)n4)c3)n2)c1 (stereo not given)', 'inhibition', 38);

Sample `COc1ccc2nccc(NN=Cc3cccc(C)n3)c2c1` — what was its inhibition?
16

Sample `CCOc1ccccc1CNc1nccc(NCCc2cn(C)c3ccccc23)n1` — what was its inhibition?
27

Sample `CN1CCC(NCc2cccc(-c3cnc(NCc4ccccc4)nc3)c2)CC1` — what was its inhibition?
12

Sample `O=C(Nc1ccc(Cl)cc1)N[C@H]1CCN(Cc2ccc(OCCCN3CCCCC3)cc2)C1` — what was its inhibition?
29

Sample `CC(=O)OC[C@H]1O[C@@H](C#Cc2ccccc2)[C@H](OC(C)=O)[C@@H](OC(C)=O)[C@@H]1OC(C)=O` — what was its inhibition?
5

Sample `COc1ccc2nccc([C@@H](O)CN3CCC(NCCOc4ccccc4[N+](=O)[O-])CC3)c2c1` — what was its inhibition?
4

---

assay: inhibition of 3D7 malaria parasite growth – strain 3D7 (AID 2306);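 note: 0% = DMSO wells and 100% = chloroquine plus artemisinin control wells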
recorded_conditions: P. falciparum 3D7 erythrocytic growth, LDH absorbance, 72 h; at 2 µM; active compounds read high
# maps each entry to its growth inhibition
Answer in %, number only, no unit symbol.

Known results for compounds:
INSERT INTO results (smiles_str, quantity_name, unit_info, experimental_value) VALUES
  ('CCCOc1c(CCNCCCCNCCc2ccc3ccccc3c2OCCC)ccc2ccccc12', 'growth inhibition', '%', 100),
  ('O=S(=O)(NCCN1CCCC1)c1ccc(-c2cccc(CNC3Cc4ccccc4C3)c2)cc1', 'growth inhibition', '%', 99),
  ('CC(C)(C)c1ccc(Cn2c(=N)n(CC(=O)c3ccc(-c4ccccc4)cc3)c3ccccc32)cc1', 'growth inhibition', '%', 98),
  ('Cc1cnc(Nc2cccnc2)nc1Nc1ccccc1C(=O)NC(C)C', 'growth inhibition', '%', 85),
  ('CC[C@H](C)CNC(=O)c1cncc(-c2cccc(CN3CCC(N4CCCC4)CC3)c2)c1', 'growth inhibition', '%', 97),
  ('COc1ccc(NC(=O)/C=C/c2ccccc2Cl)cc1OCCN1CCC(O)(c2ccc(Cl)c(C(F)(F)F)c2)CC1', 'growth inhibition', '%', 101),
  ('CCOC(=O)c1ccc(NCc2ccccn2)cc1', 'growth inhibition', '%', 99),
  ('Cc1cccc2[nH]c(-c3cccc(-c4ccc(NC(=O)NC(C)C)cc4)c3)nc12', 'growth inhibition', '%', 98),
  ('CC(=O)NCC(=O)NC1=NC(C)(C)N(OCc2ccc3ccccc3c2)C(N)=N1', 'growth inhibition', '%', 95);

Sample `Cc1cc(NC(=O)c2ccc(-c3ccccc3)cc2)no1` — what was its growth inhibition?
83

---

# maps each entry to its growth inhibition
assay: inhibition of 3D7 malaria parasite growth – strain 3D7 (AID 2306);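 note: 0% = DMSO wells and 100% = chloroquine plus artemisinin control wells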
recorded_conditions: P. falciparum 3D7 erythrocytic growth, LDH absorbance, 72 h; at 2 µM; active compounds read high
Answer in %, number only, no unit symbol.

Known results for compounds:
INSERT INTO assay_data (smiles_str, experimental_value) VALUES
  ('Cc1ccc2c(=O)n(C)c(=O)n(C)c2n1', 98),
  ('COc1cc2nc(N3CCN(C(=O)c4cccc(I)c4)CC3)nc(N)c2cc1OC', 88),
  ('O=C(c1ccc(-c2cnc3[nH]cc(-c4ccc(C(=O)N5CCOCC5)cc4)c3c2)cc1)N1CCOCC1', 91),
  ('CSc1cccc(NC(=O)Nc2ccc(I)c(OCCN(C)C)c2)c1', 97);

Sample `Cc1cc(N2CCNCC2)c2cc(NC(=O)Nc3ccc(Cl)c(Cl)c3)ccc2n1` — what was its growth inhibition?
100

---

# maps each entry to its growth inhibition
assay: inhibition of 3D7 malaria parasite growth – strain 3D7 (AID 2306);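 note: 0% = DMSO wells and 100% = chloroquine plus artemisinin control wells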
recorded_conditions: P. falciparum 3D7 erythrocytic growth, LDH absorbance, 72 h; at 2 µM; active compounds read high
Answer in %, number only, no unit symbol.

INSERT INTO measurements (molecule, experimental_value) VALUES
  ('COc1cccc(-c2cc(C(F)(F)F)n3ncc(C(=O)Nc4cc(Cl)ccc4O)c3n2)c1', 99),
  ('COc1ccc(NC(=O)[C@H](Cc2ccccc2)Nc2cc(C)nc(NCCc3ccc(F)cc3)n2)cc1', 101),
  ('O=C(Nc1ccc(N2CCN(Cc3ccccc3Cl)CC2)cc1)c1ccc([N+](=O)[O-])o1', 91),
  ('Cc1cc(NC(=O)Nc2ccc3nc(C)oc3c2)c2cc(Cl)ccc2n1', 100),
  ('CC(C)C[C@H](Nc1ccc(C#N)c2ccccc12)C(=O)NC(C)(C)C12CC3CC(CC(C3)C1)C2', 96),
  ('Cc1cccc2[nH]c(-c3ccc(-c4ccc(CNCCNC(=O)c5ccnn5C)cc4)cc3)nc12', 102),
  ('CNC(=O)Cc1ccc(C(=O)Nc2cccc(-c3csc(-c4nc5ccccc5[nH]4)c3)c2)cc1', 95),
  ('Cc1ccc(NC(=O)C(C)Sc2n[nH]c(-c3ccccc3Br)n2)cc1 (centres undefined)', 89);

Sample CC(Oc1ccc(C(=O)c2ccc(F)cc2)cc1)C(=O)N1CCc2ccccc21 (centres undefined) — what was its growth inhibition?
95

Sample `O=[N+]([O-])c1ccccc1C=NNc1c2c(nc3ccccc13)CCCC2` — what was its growth inhibition?
97

Sample `Cc1cccc2[nH]c(-c3cccc(-c4cccc(NC(=O)Nc5ccsc5)c4)c3)nc12` — what was its growth inhibition?
102

Sample Cc1cccc2[nH]c(-c3ccc(-c4ccc(CN5CCCC(N)C5)cc4)cc3)nc12 (centres undefined) — what was its growth inhibition?
99

Sample `CC(=O)COc1c(C2CCN(CCCCNC(=O)c3ccc(-c4ccc(C(F)(F)F)cc4)cc3)CC2)ccc2c1CCCC2` — what was its growth inhibition?
99

Sample `COc1ccc2ncc(F)c(CCN3CC[C@@H](CNCc4ccc5c(c4C)OCCO5)C3)c2n1` — what was its growth inhibition?
94
